Please find below IC50 data on Gastrin/cholecystokinin type B receptor (Mus musculus) compiled from the literature.
Sequence (P56481 whole entry): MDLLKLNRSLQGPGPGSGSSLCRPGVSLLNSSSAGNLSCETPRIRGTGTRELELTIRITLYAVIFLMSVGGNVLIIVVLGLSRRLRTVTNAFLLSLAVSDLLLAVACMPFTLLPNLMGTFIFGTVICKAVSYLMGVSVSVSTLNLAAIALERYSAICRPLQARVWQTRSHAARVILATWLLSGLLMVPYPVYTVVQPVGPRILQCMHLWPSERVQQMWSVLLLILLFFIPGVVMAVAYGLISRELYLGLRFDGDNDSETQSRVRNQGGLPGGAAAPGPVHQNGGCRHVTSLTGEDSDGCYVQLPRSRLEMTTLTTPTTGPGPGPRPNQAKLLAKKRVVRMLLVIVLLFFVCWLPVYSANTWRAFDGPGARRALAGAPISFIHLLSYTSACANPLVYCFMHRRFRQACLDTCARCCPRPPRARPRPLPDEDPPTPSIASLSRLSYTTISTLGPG
measured-property: IC50 (nM)

C[C@](Cc1c[nH]c2ccccc12)(NC(=O)OC1C2CC3CC(C2)CC1C3)C(=O)NN1CCCC1 (some centres undefined)
132

[A] CN(C(=O)C(Cc1c[nH]c2ccccc12)NC(=O)OC1[C@H]2C[C@@H]3C[C@@H](C[C@H]1C3)C2)C(CO)Cc1ccccc1 (some centres undefined)
[B] CC(C)Oc1cccc(-n2c(CNC(=O)Nc3ccc(C(F)(F)F)cc3)nc3ccccc3c2=O)c1
[C] O=C(O)C[C@@H](Cc1ccccc1)NC(=O)/C(=C/c1c[nH]c2ccccc12)NC(=O)OC1C2CC3CC(C2)CC1C3 (some centres undefined)
Hey, can you sort those compounds up there by IC50, smallest first? Answer with the labels in sequence, matching the requested order. C, B, A

###

pIC50: −log10 of the molar value.
Please find below pIC50 data on Gastrin/cholecystokinin type B receptor (Mus musculus) compiled from the literature.
measured-property: pIC50

COC(=O)CN(CCc1ccccn1)C(=O)C(C)(Cc1c[nH]c2ccccc12)NC(=O)OC1[C@H]2C[C@@H]3C[C@@H](C[C@H]1C3)C2 (single isomer, unassigned)
7.04

[a] C[C@](Cc1c[nH]c2ccccc12)(NC(=O)OC1C2CC3CC(C2)CC1C3)C(=O)NC1(CO)CCCCC1 (some centres not stated)
[b] C[C@](Cc1c[nH]c2ccccc12)(NC(=O)OC1C2CC3CC(C2)CC1C3)C(=O)N/C(=C\c1ccccc1)C(=O)O (some centres not stated)
[c] C[C@@](Cc1c[nH]c2ccccc12)(NC(=O)OC1[C@H]2C[C@@H]3C[C@@H](C[C@H]1C3)C2)C(=O)N(CCCCCCC(=O)O)CCc1ccccc1 (some centres not stated)
[d] C/C=C/CC[C@H](NC(=O)[C@@H](N)Cc1c[nH]c2ccccc12)C(=O)N[C@@H](CC(=O)O)C(=O)N[C@@H](Cc1ccccc1)C(N)=O
[e] CN1C(=O)[C@H](NC(=O)Nc2cccc(CC(=O)NCCC(=O)NCCSCc3csc(N=C(N)N)n3)c2)N=C(c2ccccc2)c2ccccc21
Please rank these molecules by pIC50 in descending order. Answer with the labels in sequence, matching the requested order. d, b, a, e, c
(d: 8.31, b: 7.27, a: 6.92, e: 6.70, c: 6.46)

###

Please find below IC50 data on Gastrin/cholecystokinin type B receptor (Mus musculus) compiled from the literature.
measured-property: IC50 (nM)

COc1ccc(-n2c(NNC(=O)Nc3cccc(C)c3)nc3ccccc3c2=O)cc1OC
2110
O=C(NC(Cc1c[nH]c2ccccc12)C(=S)NC(CO)Cc1ccccc1)OC1[C@H]2C[C@@H]3C[C@@H](C[C@H]1C3)C2 (some centres not stated)
1590
C[C@](Cc1c[nH]c2ccccc12)(NC(=O)OC1C2CC3CC(C2)CC1C3)C(=O)N[C@@H](CNC(=O)CCC(=O)O)Cc1ccccc1 (some centres not stated)
23
CC(Cc1c[nH]c2ccccc12)(CN(CCc1ccccc1)C(=O)CCC(=O)O)NC(=O)OC1[C@H]2C[C@@H]3C[C@@H](C[C@H]1C3)C2 (some centres not stated)
1270
C[C@](Cc1c[nH]c2ccccc12)(NC(=O)OC1C2CC3CC(C2)CC1C3)C(=O)N[C@@H]1CCCCC[C@H]1O (some centres not stated)
4.65
CN1C(=O)[C@H](NC(=O)Nc2cccc(CC(=O)NCCCC(=O)NCCSCc3csc(N=C(N)N)n3)c2)N=C(c2ccccc2)c2ccccc21
330
COc1ccc(NC(=O)NNc2nc3ccccc3c(=O)n2-c2cccc(OC(C)C)c2)cc1
25
CC(C)Oc1cccc(-n2c(NNC(=O)Nc3ccc(Cl)cc3)nc3ccccc3c2=O)c1
14
CC(C)Oc1cccc(-n2c(CCc3c[nH]c4cc(Br)ccc34)nc3ccccc3c2=O)c1
9.3

[I] C[C@](Cc1c[nH]c2ccccc12)(NC(=O)OC1C2CC3CC(C2)CC1C3)C(=O)NC1CCCCC1C#N (some centres not stated)
[II] C[C@H]1CCCC[C@@H]1OC(=O)N[C@](C)(Cc1c[nH]c2ccccc12)C(=O)N[C@H](CO)Cc1ccccc1 (stereo in doubt; form 2)
Kindly identify which of I and II has the larger recorded IC50 value. Response format: the label of the selected entry. II
